# system name: T1, mouse IL-12Rβ2 expressed on cells (mouse, UniProt P97378 24-874)
# T1 construct: HEK293T cells, stably transduced (cDNA NM_008354); also called mIL-12RB2
# T1 sequence: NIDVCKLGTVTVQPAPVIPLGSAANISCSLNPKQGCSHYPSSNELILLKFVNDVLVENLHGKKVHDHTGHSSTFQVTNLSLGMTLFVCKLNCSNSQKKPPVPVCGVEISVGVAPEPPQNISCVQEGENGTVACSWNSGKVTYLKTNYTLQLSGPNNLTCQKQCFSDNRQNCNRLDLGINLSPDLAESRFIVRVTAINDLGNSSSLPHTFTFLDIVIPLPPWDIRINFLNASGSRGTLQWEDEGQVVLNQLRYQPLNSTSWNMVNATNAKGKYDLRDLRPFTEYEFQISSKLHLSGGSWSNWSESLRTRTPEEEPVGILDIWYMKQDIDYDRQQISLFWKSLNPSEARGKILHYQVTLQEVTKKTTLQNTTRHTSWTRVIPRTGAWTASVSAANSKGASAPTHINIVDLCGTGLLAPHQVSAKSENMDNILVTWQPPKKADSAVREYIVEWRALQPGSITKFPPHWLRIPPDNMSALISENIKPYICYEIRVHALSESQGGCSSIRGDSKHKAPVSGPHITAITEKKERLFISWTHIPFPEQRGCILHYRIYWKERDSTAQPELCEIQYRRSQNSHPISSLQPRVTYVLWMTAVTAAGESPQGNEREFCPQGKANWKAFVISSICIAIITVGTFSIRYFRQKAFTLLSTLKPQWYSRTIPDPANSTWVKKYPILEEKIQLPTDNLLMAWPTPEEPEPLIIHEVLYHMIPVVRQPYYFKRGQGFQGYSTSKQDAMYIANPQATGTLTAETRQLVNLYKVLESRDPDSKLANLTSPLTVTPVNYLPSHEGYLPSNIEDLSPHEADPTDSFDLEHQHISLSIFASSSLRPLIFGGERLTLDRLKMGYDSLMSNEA
# assay summary: flow cytometry, P.E. VHH on HEK293T cells expressing mIL-12RB2
Record form. Attribute: % cells bound. Fill in for each entry.
Answers are plain numbers, in %.

binder: anti-IL-12Rβ2 VHH clone 3CAM1 (VHH, not shown: small tags and cut ends, tested as periplasmic extract) VHH: QVQLQESGGGLVQAGGSLRLSCAASGRTFGSHRMGWFRQAPGQEREFVAAIAWRGGTQYYTDSVKGRFTISRDNANNTVYLQMNSLKPEDAAVYYCVAGEGSSWGDITDPRRYVFWGQGTQVTVSS
% cells bound [%]: 63

# per-item lookup of % cells bound; items listed below
1. anti-IL-12Rβ2 VHH clone 3CAM65 (VHH, not shown: small tags and cut ends, tested as periplasmic extract; also called 20513) VHH: QVQLQESGGGLVQAGGSLRLSCAPSGRTFTTYVMGWFRQAPGKEREFVAHISWSGGRTYYADSVKGRFTISRDNAKNTSYLQMNSLKPEDTAVYYCAAARSDAVRIGYAEGYEYWGQGTQVTVSS
2. anti-IL-12Rβ2 VHH clone 3CAM57 (VHH, not shown: small tags and cut ends, tested as periplasmic extract; also called 20512; 3CAMS7) VHH: QVQLQESGGGLVQAGGSLRLSCTPSGRTFSTLAMGWFRQAPGKEREVVATISWSGGRTYYASSVKSRFTISRDNAKNTAYLQMNSLRPDDTAVYYCAARGTDYGAYDYWGQGTQVTVSS
3. anti-IL-12Rβ2 VHH clone 2CAMS52 (VHH, not shown: small tags and cut ends, tested as periplasmic extract; also called 20535; 2CAMSSZ) VHH: QVQLQESGGGLVQPGASLRLSCATSGPTLSTYAMGWFRQAPGKEREVVATISWSGGRVTYVDSVKGRFTISRDNAKNTAYLQMNRLRPDDTAVYTCAARESDYGAYDYWGQGTQVTVSS

1. 57.9
2. 62.2
3. 60.9
